Values of Ki reported for Kappa-type opioid receptor (Rattus norvegicus) appear below.
Metric: Ki (nM)

{"columns": ["Molecule", "Measurement"],
 "data": [
  ["Oc1ccc2c3c1OC1c4[nH]c5c(c4CC4(O)CN(CCC314)C(C1CC1)C2)CC1(O)CN2CCC13c1c(ccc(O)c1OC53)CC2C1CC1 (configuration not stated)", 38.8],
  ["COC12CCC(=O)C3(C)Oc4c(O)ccc5c4C31CCN(C)C2C5 (configuration not stated)", 25.2]
]}

----------
pKi: −log10 of the molar value.
Values of pKi reported for Mu-type opioid receptor (Rattus norvegicus, UniProt P33535) appear below.

{"columns": ["Compound", "pKi"],
 "data": [
  ["COc1cccc2c1C13CCN(CC4CC4)C(C2)C1(OC)CCC(=O)C3 (configuration not stated) [NSC_3081671]", 7.82],
  ["COC12CCC(=O)C3(C)Oc4c(O)ccc5c4C31CCN(C)C2C5 (configuration not stated) [NSC_125489]", 9.32]
]}
